# Test system: HeLa
# Protocol summary: Antiproliferative activity against human HeLa cells assessed as inhibition of cell growth incubated for 72 hrs by MTT assay
# Assay type: functional, cell-based
IC50 strictly less than 5 µM = rule met. Otherwise rule not met.

1) CCOC(=O)[C@H]1c2c(C)cccc2[C@H]2CC[C@]3(O)C[C@@]21C[C@]3(O)CN[C@@H](C)c1cccc2ccccc12
rule met
2) CCOC(=O)[C@H]1c2c(C)cccc2[C@H]2CC[C@@]3(CNCc4ccc(F)cc4)C[C@]21C[C@H]3O
rule not met
3) CCOC(=O)[C@H]1c2c(C)cccc2[C@H]2CC[C@@]3(CO)C[C@]21C[C@@H]3N[C@H](C)c1cccc2ccccc12
rule not met
4) CCOC(=O)[C@H]1c2c(C)cccc2[C@H]2CC[C@@]3(CNCc4ccc(OC)cc4)C[C@]21C[C@H]3O
rule not met
5) CCOC(=O)[C@H]1c2c(C)cccc2[C@H]2CC[C@@]3(CNCc4cc(Br)ccc4O)C[C@]21C[C@H]3O
rule met
6) CCOC(=O)[C@H]1c2c(C)cccc2[C@H]2CC[C@@]3(CO)C[C@]21C[C@@H]3N[C@@H](C)c1cccc2ccccc12
rule not met
7) CCOC(=O)[C@H]1c2c(C)cccc2[C@H]2CC[C@@]3(CO)C[C@]21C[C@@H]3NCCc1c[nH]c2ccccc12
rule met

Origin of values: ChEMBL document CHEMBL5335840
